PROCEDURE_SUMMARY: Cohesive-adhesive balance (CAB) by AFM colloid probe
Format: physicochemical
STUDY_CONDITIONS: AFM force measurement
ENDPOINT: adhesion values

Give adhesion values for CCC(=O)O[C@]1(C(=O)SCF)[C@H](C)C[C@H]2[C@@H]3C[C@H](F)C4=CC(=O)C=C[C@]4(C)[C@@]3(F)[C@@H](O)C[C@@]21C [micronized FP, Fluticasone Propionate]
169 to 249 nN
